Hey, just so you know, these numbers are from the supplement of paper PMC5998384.

Exercise: for every item that follows, state its recorded thermal stability score.
test system: HeLa Kyoto; assay: thermal stability score vs G1/S (z-score of summed log2 fold changes over temperatures); higher = more thermally stable than in G1/S; details: cell cycle stage: early G1 (4.5 h after nocodazole release)
One number for each entry.

Give one value of thermal stability score per listed substance.
1. RABGAP1
2. MAASLRLLGAASGLRYWSRRLRPAAGSFAAVCSRSVASKTPVGFIGLGNMGNPMAKNLMKHGYPLIIYDVFPDACKEFQDAGEQVVSSPADVAEKADRIITMLPTSINAIEAYSGANGILKKVKKGSLLIDSSTIDPAVSKELAKEVEKMGAVFMDAPVSGGVGAARSGNLTFMVGGVEDEFAAAQELLGCMGSNVVYCGAVGTGQAAKICNNMLLAISMIGTAEAMNLGIRLGLDPKLLAKILNMSSGRCWSSDTYNPVPGVMDGVPSANNYQGGFGTTLMAKDLGLAQDSATSTKSPILLGSLAHQIYRMMCAKGYSKKDFSSVFQFLREEETF [HIBADH]
3. MAGPELLLDSNIRLWVVLPIVIITFFVGMIRHYVSILLQSDKKLTQEQVSDSQVLIRSRVLRENGKYIPKQSFLTRKYYFNNPEDGFFKKTKRKVVPPSPMTDPTMLTDMMKGNVTNVLPMILIGGWINMTFSGFVTTKVPFPLTLRFKPMLQQGIELLTLDASWVSSASWYFLNVFGLRSIYSLILGQDNAADQSRMMQEQMTGAAMAMPADTNKAFKTEWEALELTDHQWALDDVEEELMAKDLHFEGMFKKELQTSIF [EMC3]
4. MSAHNRGTELDLSWISKIQVNHPAVLRRAEQIQARRTVKKEWQAAWLLKAVTFIDLTTLSGDDTSSNIQRLCYKAKYPIREDLLKALNMHDKGITTAAVCVYPARVCDAVKALKAAGCNIPVASVAAGFPAGQTHLKTRLEEIRLAVEDGATEIDVVINRSLVLTGQWEALYDEIRQFRKACGEAHLKTILATGELGTLTNVYKASMIAMMAGSDFIKTSTGKETVNATFPVAIVMLRAIRDFFWKTGNKIGFKPAGGIRSAKDSLAWLSLVKEELGDEWLKPELFRIGASTLLSDIERQIYHHVTGRYAAYHDLPMS [DERA]

1: -0.113; 2: 0.844; 3: -0.437; 4: -3.39

###

tested on: HeLa Kyoto; assay: thermal stability score vs G1/S (z-score of summed log2 fold changes over temperatures); higher = more thermally stable than in G1/S; conditions: cell cycle stage: early G1 (4.5 h after nocodazole release);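 note: synchronized HeLa Kyoto cells, proteins quantified by TMT10plex mass spectrometry, three biological replicates, mitosis taken 0.5 h after nocodazole release, G1/S directly after double thymidine block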
readout.kind: thermal stability score
Numbers only.

record.sequence: MGFGDLKSPAGLQVLNDYLADKSYIEGYVPSQADVAVFEAVSSPPPADLCHALRWYNHIKSYEKEKASLPGVKKALGKYGPADVEDTTGSGATDSKDDDDIDLFGSDDEEESEEAKRLREERLAQYESKKAKKPALVAKSSILLDVKPWDDETDMAKLEECVRSIQADGLVWGSSKLVPVGYGIKKLQIQCVVEDDKVGTDMLEEQITAFEDYVQSMDVAAFNKI [EEF1B2]
readout.kind: thermal stability score
recorded.number: -1.43

Give thermal stability score for each of the items listed below.
1. MAKKTYDLLFKLLLIGDSGVGKTCVLFRFSDDAFNTTFISTIGIDFKIKTVELQGKKIKLQIWDTAGQERFHTITTSYYRGAMGIMLVYDITNGKSFENISKWLRNIDEHANEDVERMLLGNKCDMDDKRVVPKGKGEQIAREHGIRFFETSAKANINIEKAFLTLAEDILRKTPVKEPNSENVDISSGGGVTGWKSKCC [RAB10]
2. MADVINVSVNLEAFSQAISAIQALRSSVSRVFDCLKDGMRNKETLEGREKAFIAHFQDNLHSVNRDLNELERLSNLVGKPSENHPLHNSGLLSLDPVQDKTPLYSQLLQAYKWSNKLQYHAGLASGLLNQQSLKRSANQMGVSAKRRPKAQPTTLVLPPQYVDDVISRIDRMFPEMSIHLSRPNGTSAMLLVTLGKVLKVIVVMRSLFIDRTIVKGYNENVYTEDGKLDIWSKSNYQVFQKVTDHATTALLHYQLPQMPDVVVRSFMTWLRSYIKLFQAPCQRCGKFLQDGLPPTWRDFRTLEAFHDTCRQ [MED27]

1. -0.265
2. -0.132
